B1: KLHDC10 (parent)
chain: CPIIRIPNRFLRGHRPPPARSGHR

Variants of: B1
Test: protein stability index of a GFP-peptide fusion (GPS, HEK-293T) (PSI 1-6); higher = more stable;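 further: lentivirally expressed fusions sorted by FACS into six bins by GFP to DsRed ratio, PSI derived from sequencing read proportions per bin multiplied by bin number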
Conditions: c terminus: a fixed tail appended
Threshold rule: protein stability index greater than or equal to 2 is true; below that, false.

INSERT INTO results (residues, category_label) VALUES
  ('CPIIRIPNRFLRGHRPPIARSGHR [P18I]', 'true'),
  ('CPIIRIPFRFLRGHRPPPARSGHR [N8F]', 'false'),
  ('CGIIRIPNRFLRGHRPPPARSGHR [P2G]', 'true'),
  ('CPIIRIPNRFLRTHRPPPARSGHR [G13T]', 'true'),
  ('CPRIRIPNRFLRGHRPPPARSGHR [I3R]', 'true'),
  ('CPIIRIPYRFLRGHRPPPARSGHR [N8Y]', 'true'),
  ('CPIIRIPNRFLRGHRPPPARSGKR [H23K]', 'false'),
  ('CPIIRIPNRALRGHRPPPARSGHR [F10A]', 'true'),
  ('CPIIRNPNRFLRGHRPPPARSGHR [I6N]', 'true'),
  ('CPIIRIINRFLRGHRPPPARSGHR [P7I]', 'true'),
  ('CPIIRIPNRRLRGHRPPPARSGHR [F10R]', 'true'),
  ('CPIIRIPNRFLRGHRHPPARSGHR [P16H]', 'false'),
  ('CPIIWIPNRFLRGHRPPPARSGHR [R5W]', 'true'),
  ('CPIIRIPNRFLRGHRPPPARSDHR [G22D]', 'true'),
  ('CPIIRIPNRFLRGHRPPPALSGHR [R20L]', 'true'),
  ('CPIIRIPNRFLRGHRPPPARSGHP [R24P]', 'true'),
  ('CPIIRIPNRFCRGHRPPPARSGHR [L11C]', 'false'),
  ('CPIIRIPNRFRRGHRPPPARSGHR [L11R]', 'true'),
  ('CPIIRIPNRFGRGHRPPPARSGHR [L11G]', 'true'),
  ('CPFIRIPNRFLRGHRPPPARSGHR [I3F]', 'false'),
  ('CPNIRIPNRFLRGHRPPPARSGHR [I3N]', 'true'),
  ('CPIQRIPNRFLRGHRPPPARSGHR [I4Q]', 'true'),
  ('CPIIRIPNRFLRGHRPSPARSGHR [P17S]', 'true'),
  ('CPIIRIPNRFLRGHRPPPARSMHR [G22M]', 'false'),
  ('QPIIRIPNRFLRGHRPPPARSGHR [C1Q]', 'true'),
  ('CPIIRIPNLFLRGHRPPPARSGHR [R9L]', 'true'),
  ('CPIIRITNRFLRGHRPPPARSGHR [P7T]', 'true'),
  ('CPIIRIVNRFLRGHRPPPARSGHR [P7V]', 'false'),
  ('CPIIRIPNRFLRGHRPYPARSGHR [P17Y]', 'true'),
  ('CPIIRINNRFLRGHRPPPARSGHR [P7N]', 'true'),
  ('CPIIRIPNRFLRGHRPPPARKGHR [S21K]', 'false'),
  ('CPIIRIPNRFLRGHRPPPARSAHR [G22A]', 'false'),
  ('CPIIRIPNRFLRGHRPPPAQSGHR [R20Q]', 'false'),
  ('CPIIRIPNYFLRGHRPPPARSGHR [R9Y]', 'false'),
  ('TPIIRIPNRFLRGHRPPPARSGHR [C1T]', 'true'),
  ('CPLIRIPNRFLRGHRPPPARSGHR [I3L]', 'true'),
  ('CPIIRIPNRFLRGHRPPPADSGHR [R20D]', 'true'),
  ('CPIIRIPNRKLRGHRPPPARSGHR [F10K]', 'false'),
  ('CPIKRIPNRFLRGHRPPPARSGHR [I4K]', 'true'),
  ('CPIIRIPNRFLRGHRPPPAPSGHR [R20P]', 'true'),
  ('WPIIRIPNRFLRGHRPPPARSGHR [C1W]', 'false'),
  ('CPIIRIPNRFLCGHRPPPARSGHR [R12C]', 'false'),
  ('CPIIRIPNRFLRGDRPPPARSGHR [H14D]', 'false'),
  ('CPIIRIPNRFLRLHRPPPARSGHR [G13L]', 'false');

Numbers sourced from the supplement of paper PMC10567573.
